Below, each of the compounds is paired with its reported inhibition value.
Biological target: Interleukin-1 receptor-associated kinase 4 (Homo sapiens) (UniProt Q9NWZ3);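 also: mean inhibition values, from the GSK PKIS dataset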
Sequence (Q9NWZ3 whole entry): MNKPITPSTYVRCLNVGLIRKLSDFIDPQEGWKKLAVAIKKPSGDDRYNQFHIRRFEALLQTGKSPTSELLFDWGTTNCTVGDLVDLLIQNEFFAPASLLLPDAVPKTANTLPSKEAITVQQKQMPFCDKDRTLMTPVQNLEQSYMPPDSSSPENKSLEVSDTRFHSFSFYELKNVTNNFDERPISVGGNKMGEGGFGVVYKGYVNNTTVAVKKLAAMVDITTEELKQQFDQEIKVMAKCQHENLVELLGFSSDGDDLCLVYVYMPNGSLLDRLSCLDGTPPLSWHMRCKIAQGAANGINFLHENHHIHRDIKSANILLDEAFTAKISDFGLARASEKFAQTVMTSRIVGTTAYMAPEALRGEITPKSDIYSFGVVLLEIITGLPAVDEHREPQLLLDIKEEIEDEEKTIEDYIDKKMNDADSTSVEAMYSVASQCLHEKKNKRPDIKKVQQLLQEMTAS
Details: at 1 µM
Just the number in %, nothing appended.

| SMILES INPUT | inhibition [%] |
| --- | --- |
| CN(C)c1cc2c(Nc3ccc4nc(Cc5ccccc5)[nH]c4c3)ncnc2cn1 | 1.94 |
| CCN1CCC(CC(=O)Nc2n[nH]c3nc(-c4cccs4)c(Br)cc23)CC1 | -0.76 |

// switching to the query compound
[Q] Let me know recorded inhibition for Fc1cccc(COc2ccc(Nc3ncnc4cc(-c5ccc[nH]5)sc34)cc2Cl)c1 , thanks.
[A] 1.69
